molecular target: Human recombinant N-ter-GST-HDAC-6 (Homo sapiens, UniProt Q9UBN7); assay: HDAC-Glo I/II bioluminogenic enzyme assay, HDAC6; type: biochemical; parameters: GST (N); purchased BPS Bioscience 50006; conditions: mean ± SD of three independent experiments; read-out: HDAC Inhibition, IC50 ± SD, HDAC6
Sequence (Q9UBN7 whole entry): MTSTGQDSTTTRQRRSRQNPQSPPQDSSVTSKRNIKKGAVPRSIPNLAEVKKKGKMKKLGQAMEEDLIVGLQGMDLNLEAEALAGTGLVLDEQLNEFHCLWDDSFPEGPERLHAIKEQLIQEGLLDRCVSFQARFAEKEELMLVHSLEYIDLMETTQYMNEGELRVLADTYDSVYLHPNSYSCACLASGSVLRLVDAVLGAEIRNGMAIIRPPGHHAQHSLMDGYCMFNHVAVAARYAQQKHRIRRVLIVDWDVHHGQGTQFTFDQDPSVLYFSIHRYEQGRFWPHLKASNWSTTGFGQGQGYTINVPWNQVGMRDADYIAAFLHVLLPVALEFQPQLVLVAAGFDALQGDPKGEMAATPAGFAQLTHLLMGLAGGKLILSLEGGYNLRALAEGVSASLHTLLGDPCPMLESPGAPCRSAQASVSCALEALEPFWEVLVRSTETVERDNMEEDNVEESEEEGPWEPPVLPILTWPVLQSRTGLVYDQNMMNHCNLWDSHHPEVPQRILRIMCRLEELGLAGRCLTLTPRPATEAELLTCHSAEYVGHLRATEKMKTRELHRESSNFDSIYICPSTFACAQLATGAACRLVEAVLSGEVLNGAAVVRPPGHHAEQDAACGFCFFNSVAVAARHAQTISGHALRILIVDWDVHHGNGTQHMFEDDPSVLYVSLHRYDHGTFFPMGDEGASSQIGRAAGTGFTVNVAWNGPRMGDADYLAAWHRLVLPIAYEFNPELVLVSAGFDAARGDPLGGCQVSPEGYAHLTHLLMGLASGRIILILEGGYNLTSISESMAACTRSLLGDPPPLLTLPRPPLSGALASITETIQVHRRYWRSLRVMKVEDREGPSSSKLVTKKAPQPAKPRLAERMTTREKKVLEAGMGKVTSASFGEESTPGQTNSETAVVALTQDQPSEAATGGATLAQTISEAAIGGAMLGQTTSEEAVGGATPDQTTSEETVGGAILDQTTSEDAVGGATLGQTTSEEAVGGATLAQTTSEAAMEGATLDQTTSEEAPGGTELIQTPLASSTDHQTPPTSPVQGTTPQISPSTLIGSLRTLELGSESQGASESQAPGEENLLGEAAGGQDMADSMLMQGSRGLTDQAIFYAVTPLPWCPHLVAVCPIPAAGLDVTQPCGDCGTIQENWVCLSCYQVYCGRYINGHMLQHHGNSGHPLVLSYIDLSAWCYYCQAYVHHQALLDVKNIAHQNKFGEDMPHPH
Measured IC50, listed per entry for reference.
I only need the number, in nM, no unit after it.

Study these solved cases before continuing.
O=C(CCCCCCN1CCN(C(c2ccccc2)c2ccccc2)CC1)NO [Compound 7b] | 96
O=C(CCCCCN1CCN(C(c2ccccc2)c2ccccc2)CC1)NO [Compound 6b] | 186
O=C(CCCCCCCN1CCN(C(c2ccccc2)c2ccccc2)CC1)NO [Compound 8b] | 124

For the next question, use this compound.
IN: Using known records, supply IC50 for O=C(NO)c1ccc(CN2CCN(C(c3ccccc3)c3ccccc3)CC2)cc1 [Compound 9b]
OUT: 31

Reference for the values: paper PMC9785542
